# MEASUREMENT TARGET: the molecule itself
# ASSAY METHOD TEXT: crystal structure; hanging-drop vapor diffusion at 19 °C, protein 15-21 mg/mL with 0.5-1% v/v DDM; data at 100 K; molecular replacement with WT ReAV PDB 7os5; dimers in the asymmetric unit

PROTEIN	binding result
ReAV S48A mutant (Rhizobium etli Class 3, type V L-asparaginase) (enzyme, ReAV, inducible thermolabile type V L-asparaginase of Rhizobium etli; Homodimer; Zn2+ at occupancy 0.7 in the crystal; source: E. coli BL21-Gold (DE3), purified (HisTrap, TEV digestion, second HisTrap, Superdex 200)) MTPSEDFVVTDRGGIVENSHRVHAAVVDAKGRLLYALGNPTRMTLARAAAKPAQALAILETEGVAGYGFDDADIALMCASHSSEDRHIARTRAMLSKIKAEEADLRCGGHPSLSEMVNRSWIKQDFIPTAVCSNCSGKHVGMLAGARAIGAGTDGYHLPDHPMQGRVKRTVAELCDLDAGDVEWGTDGCNLPTPAFPLDRLGRIYAKLASAADGSDAGEGQSTRCAALAHIFRAMARHPEMVAGEGRYCTMLMRAFDGALVGKLGADASYAIGVRASDATRQLGTDGALGISVKIEDGNLEMLYAVVTELLERLGIGSPDVRSQLASFHHPQRVNTMGVTTGGVSFPFKLRGSKSNVDDPRLAAVAR	binds
ReAV R47A mutant (Rhizobium etli Class 3, type V L-asparaginase) (enzyme, ReAV, inducible thermolabile type V L-asparaginase of Rhizobium etli; Homodimer; source: E. coli BL21-Gold (DE3), purified (HisTrap, TEV digestion, second HisTrap, Superdex 200)) MTPSEDFVVTDRGGIVENSHRVHAAVVDAKGRLLYALGNPTRMTLAASAAKPAQALAILETEGVAGYGFDDADIALMCASHSSEDRHIARTRAMLSKIKAEEADLRCGGHPSLSEMVNRSWIKQDFIPTAVCSNCSGKHVGMLAGARAIGAGTDGYHLPDHPMQGRVKRTVAELCDLDAGDVEWGTDGCNLPTPAFPLDRLGRIYAKLASAADGSDAGEGQSTRCAALAHIFRAMARHPEMVAGEGRYCTMLMRAFDGALVGKLGADASYAIGVRASDATRQLGTDGALGISVKIEDGNLEMLYAVVTELLERLGIGSPDVRSQLASFHHPQRVNTMGVTTGGVSFPFKLRGSKSNVDDPRLAAVAR	binds
ReAV K51A mutant (in fact the double mutant K51A/H238Y; Rhizobium etli Class 3, type V L-asparaginase) (enzyme, ReAV, inducible thermolabile type V L-asparaginase of Rhizobium etli; the crystallised protein carries the unintended second mutation H238Y; Homodimer; Zn2+ at occupancy 0.5 in the crystal; source: E. coli BL21-Gold (DE3), purified (HisTrap, TEV digestion, second HisTrap, Superdex 200)) MTPSEDFVVTDRGGIVENSHRVHAAVVDAKGRLLYALGNPTRMTLARSAAAPAQALAILETEGVAGYGFDDADIALMCASHSSEDRHIARTRAMLSKIKAEEADLRCGGHPSLSEMVNRSWIKQDFIPTAVCSNCSGKHVGMLAGARAIGAGTDGYHLPDHPMQGRVKRTVAELCDLDAGDVEWGTDGCNLPTPAFPLDRLGRIYAKLASAADGSDAGEGQSTRCAALAHIFRAMARYPEMVAGEGRYCTMLMRAFDGALVGKLGADASYAIGVRASDATRQLGTDGALGISVKIEDGNLEMLYAVVTELLERLGIGSPDVRSQLASFHHPQRVNTMGVTTGGVSFPFKLRGSKSNVDDPRLAAVAR	binds
